Origin of measurements: patent US5602100A

For each record, write down the corresponding Ki^δ /Ki^μ.
# MEASUREMENT TARGET: μ-opioid receptor (Rattus norvegicus, UniProt P33535)
# Construct: displacement of the radioligands from the rat brain membrane preparations; from tissue; host or cells: rat brain membrane preparations
# Sequence (P33535 whole entry): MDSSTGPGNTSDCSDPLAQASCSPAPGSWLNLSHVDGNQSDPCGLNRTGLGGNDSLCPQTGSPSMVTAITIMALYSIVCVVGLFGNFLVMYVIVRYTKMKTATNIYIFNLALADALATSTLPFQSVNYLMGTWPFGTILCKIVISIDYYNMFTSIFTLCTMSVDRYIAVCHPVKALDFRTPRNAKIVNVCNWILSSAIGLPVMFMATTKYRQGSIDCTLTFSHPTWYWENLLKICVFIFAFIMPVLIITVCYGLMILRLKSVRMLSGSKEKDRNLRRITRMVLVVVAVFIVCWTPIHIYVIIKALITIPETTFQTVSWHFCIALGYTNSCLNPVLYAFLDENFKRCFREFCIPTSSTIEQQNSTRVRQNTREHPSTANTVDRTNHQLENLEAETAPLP
# METHOD NOTES: biochemical
# Assay type: binding
Non-standard residues stand in square brackets, D forms with d. Residues, ends and D or L forms follow the SMILES beside them. Nva = CCC[C@H](N)C(=O)O

Suppose we examine the molecule CC(C)C[C@@H](NC(=O)[C@@H](N)Cc1ccc(O)cc1)C(=O)N[C@@H](Cc1ccccc1)C(=O)N[C@@H](CCCCN)C(N)=O [BCH-2207, H-Tyr-D-Leu-Phe-Lys-NH2] (H-Y[dL]FK-NH2) ; what Ki^δ /Ki^μ value has been reported?
> 15

Suppose we examine the molecule NCCCC[C@H](NC(=O)[C@H](Cc1ccccc1)NC(=O)[C@@H](CO)NC(=O)[C@@H](N)Cc1ccc(O)cc1)C(N)=O [BCH-2209, H-Tyr-D-Ser-Phe-Lys-NH2] (H-Y[dS]FK-NH2) ; what Ki^δ /Ki^μ value has been reported?
> 105

Suppose we examine the molecule CCC[C@H](NC(=O)[C@H](Cc1ccccc1)NC(=O)[C@@H](CCCNC(=N)N)NC(=O)[C@@H](N)Cc1ccc(O)cc1)C(N)=O [BCH-1788, H-Tyr-D-Arg-Phe-Nva-NH2] (H-Y[dR]F[Nva]-NH2) ; what Ki^δ /Ki^μ value has been reported?
> 216
